Biological target: hM4 mAChR (Homo sapiens)
Sequence (P08173 whole entry): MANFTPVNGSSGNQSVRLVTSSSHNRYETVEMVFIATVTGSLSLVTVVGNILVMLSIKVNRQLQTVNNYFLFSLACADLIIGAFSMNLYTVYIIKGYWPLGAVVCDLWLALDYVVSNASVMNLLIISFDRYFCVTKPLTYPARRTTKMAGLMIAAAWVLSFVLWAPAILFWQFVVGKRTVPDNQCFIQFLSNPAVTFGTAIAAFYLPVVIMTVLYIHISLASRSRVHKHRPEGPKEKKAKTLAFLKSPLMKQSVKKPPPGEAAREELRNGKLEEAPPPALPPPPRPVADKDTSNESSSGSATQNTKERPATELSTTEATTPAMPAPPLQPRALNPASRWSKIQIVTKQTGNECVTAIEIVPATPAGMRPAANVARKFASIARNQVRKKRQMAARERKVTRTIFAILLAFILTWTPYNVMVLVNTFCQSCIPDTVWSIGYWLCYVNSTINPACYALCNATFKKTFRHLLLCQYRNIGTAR
Format: binding
Details: CHO cells stably expressing hM4, mean ± SEM
REPORTED PROPERTY: LogαACh (logarithm of the binding cooperativity factor between M4-PAMs and ACh)
// print number alone

The examples below pair each entry with its known result.
| COMPOUND | REPORTED VALUE |
| --- | --- |
| N#Cc1ccc(-c2cnn(CC3CCCC3)c2)c(-c2ccc3c(c2)C(=O)N(CCF)C3)n1 [Compound 12] | 1.4 |
| N#Cc1ccc(-c2cnn(CC3CCCC3)c2)c(-c2ccc3c(c2)C(=O)N(CCCF)C3)n1 [Compound 13] | 1.6 |
| Cc1ccc(-c2cnn(CC3CCCC3)c2)c(-c2ccc3c(c2)C(=O)N(C)C3)n1 [Compound 10] | 1.6 |

Return reported LogαACh (logarithm of the binding cooperativity factor between M4-PAMs and ACh); argument: Cc1ccc(-c2cnn(CC3CCCC3)c2)c(-c2ccc3c(c2)C(=O)NC3)n1 [Compound 11]
1.4

Given CN1Cc2ccc(-c3nc(C#N)ccc3-c3cnn(CC4CCCC4)c3)cc2C1=O [Compound 8] , state its recorded LogαACh (logarithm of the binding cooperativity factor between M4-PAMs and ACh).
1.7
